- ASSAYED_SYSTEM: T1, Sym-1706 (RSV G central conserved domain (CCD) peptide, type A 145-184) (Respiratory syncytial virus type A, N-terminal biotin)
- T1 construct: Synthetic peptide, C-terminally truncated against Sym-1705
- T1 peptide: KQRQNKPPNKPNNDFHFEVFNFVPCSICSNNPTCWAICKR
- ASSAY_NOTES: ELISA, biotinylated peptide on avidin plate

{"BINDER": "CB076.2L (antibody, V domains shown, Tested as human IgG from the pCP9-lambda vector) VH: QVQLVQSGAEVKKPGSSVKVSCKTSGDTFSNYVVSWVRQAPGQGLEWMGGIIPMFGTTNYAQRFQGRVTISADESTSTAYMEMSSLKSEDTAVYYCARDRYYEVRAGGKVLNTYYYMDVWGKGTTVTVSS VL: SSELTQDPAVSVALGHTVRITCQGDSLRSYYTNWYQQKPGQAPVLVIFGEDNRPSGIPDRFSGSSSGDTASLTITGTQAEDEADYYCNSRDSSGNLWVFGGGTKLTVL", "binding result": "binds"}
{"BINDER": "CB079.1 (antibody, V domains shown, Tested as human IgG from the pCP9-kappa vector) VH: EVQLVESGGDLVQPGGSLRLSCSASGFVFTSYSFHWVRQAPGKGLEYVSSVSADGGSTYYADSVRGRFLISRDNSKNTLSLQMSSLRPDDTALYYCVPQPSLLWFGDLRSWGQGTLVTVSS VL: DIVMTQSPLSLPVTPGEPASISCRSSQSLLHSNGYNYLDWYLQKPGQSPQLLIYLSSNRASGVPDRFSGSGSGTDFTLKISRVEAEDIGIYYCMQSLQTLTFGQGTRLEIK", "binding result": "binds"}
{"BINDER": "CB073.1L (antibody, V domains shown, Tested as human IgG from the pCP9-lambda vector) VH: QVQLVESGGGVVQPGRSLRLSCAASGFTFYNYAVHWVRQAPGKGLEWVAVISHDGVNKDYADSVKGRITLSRDNSKNTVYLQLNSLRPEDTAVYYCARDRSYYFGGSVFHLYFDYWGQGTLVTVSS VL: QSVLTQPPSVSGAPGQRVIISCTGSSSNIGAGHDVHWYQQLPGTAPRLLIYANTNRPSGVPDRFSASKSGNSASLVITGLQAEDEADYFCQSHDSSLSGVLFGGGTKLTVL", "binding result": "binds"}
